Molecular target: ghrelin receptor (Rattus norvegicus)
Construct: Strips of approximately 1 cm (5 mm wide) of gastric fundus were cut out along the longitudinal axis
Sequence (O08725 whole entry): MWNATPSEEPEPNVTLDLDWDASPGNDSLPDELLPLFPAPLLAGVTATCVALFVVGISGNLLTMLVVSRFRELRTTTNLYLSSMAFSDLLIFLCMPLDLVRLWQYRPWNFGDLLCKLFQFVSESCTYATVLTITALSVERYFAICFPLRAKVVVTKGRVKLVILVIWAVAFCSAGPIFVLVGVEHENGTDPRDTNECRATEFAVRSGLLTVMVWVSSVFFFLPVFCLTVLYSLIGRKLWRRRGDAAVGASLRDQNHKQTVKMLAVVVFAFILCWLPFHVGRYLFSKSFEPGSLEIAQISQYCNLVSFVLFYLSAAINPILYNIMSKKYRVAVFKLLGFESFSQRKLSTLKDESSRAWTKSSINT
Assay: Ghrelin antagonism in electrically stimulated rat gastric fundus strips (called In Vivo Test)
Conditions: isolated rat gastric fundus strips, electric-field stimulation, ghrelin 0.1 nM-1 μM concentration-response curves, antagonist contact time 30 minutes; read-out: IC50, antagonist activity towards the ghrelin receptor
REPORTED_ENDPOINT: IC50 (nM)

MOLECULE: CCN1CCN(C(C)C(=O)NC2(c3ccc4occc4c3)C(=O)Nc3cc(Cl)cc(Cl)c32)CC1 (single isomer, unassigned; (+)) [Example 2]
MEASURE_UNIT: nM
VALUE_REPORTED: 12
